test system: M14 melanoma; test: NCI-60 one-dose screen, 48 h (100 = growth as untreated, 0 = no growth, -100 = all killed); conditions: 10 µM unless noted
About 83,000 compounds went through this panel and 20% of them were active in at least one assay; those are over-represented in the sample as a whole.
assayEndpoint: growth (%)
Give the quantity in %, number only.

compound=CCOC(=O)Nc1ccc(-c2nc(-c3cccc(OC)c3)c(-c3ccnc(Br)c3)[nH]2)cc1 systemtested="M14 melanoma" valuereported=36

State the recorded growth for this entry: NCCCNc1nc2ccc(Cl)cc2c2c(=O)c3cc(F)ccc3sc12
55

State the recorded growth for this entry: COc1ccc(C2C(C#N)=C(N)Oc3c2sc2c(C)cccc32)cc1 (stereo not drawn)
8.58

State the recorded growth for this entry: COc1nc2ccc(C)cc2cc1-c1nc2c(cnn2-c2ccc(Br)cc2)c(=O)[nH]1
27.7

State the recorded growth for this entry: O=C(N/N=C/[C@H](O)[C@@H](O)[C@@H](O)[C@H](O)CO)c1ccc(NC(=O)c2cccnc2)cc1
114
